Origin of values: ChEMBL document CHEMBL1157539

- System: Plasmodium falciparum
- assay text: GSK_TCMDC: Inhibition of Plasmodium falciparum 3D7 in whole erythrocytes, using parasite LDH activity as an index of growth.
- Assay type: functional, organism-based
- applied conditions: Plasmodium falciparum, 3D7
hey, just use 1.0 if measured XC50 is less than 0.4 µM, otherwise 0.0

I wonder whether `O=C(/C=C/c1ccc(Cl)c(Cl)c1)N1CCN(C(=O)Nc2ccc(F)c(Cl)c2)CC1` has XC50 below 0.4 µM. Can you tell? 0.0

I wonder whether `Cc1[nH]c(C)c(-c2ccc(-c3ccccc3)nc2)c(=O)c1Br` has XC50 below 0.4 µM. Can you tell? 0.0

I wonder whether CN(C)CCCn1cc(C(=O)OC2CC3CCC(C2)N3C)c2cc(-c3ccccc3)ccc21 (centres undefined) has XC50 below 0.4 µM. Can you tell? 0.0

I wonder whether `CC(C)Cc1c(O)nc(SCCN2CCOCC2)[nH]c1=O` has XC50 below 0.4 µM. Can you tell? 0.0

I wonder whether `Cc1[nH]cnc1CSCCNC(=N)NCCCCCCCCNC(=N)NCCSCc1nc[nH]c1C` has XC50 below 0.4 µM. Can you tell? 1.0

I wonder whether `CCOc1ccccc1C=CC(=O)Nc1ccc2nc(N3CCN(C)CC3)cc(C)c2c1` has XC50 below 0.4 µM. Can you tell? 1.0

I wonder whether CC(C)c1ccc(NC(=O)NCC2CCCN(CCCCCNC(=O)/C=C/c3ccc(Cl)c(Cl)c3)C2)cc1 (centres undefined) has XC50 below 0.4 µM. Can you tell? 0.0

I wonder whether CCN1CCN(C(=O)NC(C(=O)N(C)Cc2ccc(-c3ccc(C(F)(F)F)cc3)cc2)c2cccs2)C(=O)C1=O (centres undefined) has XC50 below 0.4 µM. Can you tell? 1.0

I wonder whether O=C(NC1CCC(CN2CCC(c3c[nH]c4ccccc34)CC2)CC1)c1cc2ccccc2s1 (centres undefined) has XC50 below 0.4 µM. Can you tell? 0.0

* * *

- Test system: Plasmodium falciparum
- assay text: GSK_TCMDC: Inhibition of Plasmodium falciparum 3D7 in whole erythrocytes, using parasite LDH activity as an index of growth.
- Type: functional, organism-based
- applied conditions: Plasmodium falciparum, 3D7
readout kind: XC50 (µM)
Please respond with the number in µM and leave the unit unwritten.

Under Plasmodium falciparum: report XC50 of Cc1cccc2nc(-c3cccc(-c4ccc(NC(=O)C(C)C(=O)NC(C)C)cc4)c3)[nH]c12 (centres undefined) . 1

Under Plasmodium falciparum: report XC50 of `O=C(NCc1cccc(F)c1)Nc1cccc(-c2ccc(-c3nc4cc(F)ccc4[nH]3)cc2)c1` . 1.05

Under Plasmodium falciparum: report XC50 of `COc1cc2nc(Nc3ccc4c(ccn4Cc4ccccc4)c3)nc(Nc3ccc4c(ccn4Cc4ccccc4)c3)c2cc1OC` . 0.647

Under Plasmodium falciparum: report XC50 of `NC(=O)c1ccccc1OCC(=O)Nc1ccc(-c2cccc(-c3nc4cc(C(F)(F)F)ccc4[nH]3)c2)cc1` . 0.978

* * *

- System: Plasmodium falciparum
- assay text: GSK_TCMDC: Inhibition of Plasmodium falciparum 3D7 in whole erythrocytes, using parasite LDH activity as an index of growth.
- Format: functional, organism-based
- applied conditions: Plasmodium falciparum, 3D7
readout kind: XC50 (nM)
Please respond with the number in nM and leave the unit unwritten.

Entry `COc1ccc(CN(C)Cc2ccc(NC(=O)c3cccc4c(=O)c5cccc(C)c5[nH]c34)cc2)cc1OC` needs its XC50 filled in; supply it. 844

Entry `O=C(Nc1ccc(S(=O)(=O)N2CCCCC2)cc1)c1cc(-c2cc(Cl)ccc2O)n[nH]1` needs its XC50 filled in; supply it. 811

Entry `COc1ccc(-c2ccccc2OCCCNc2nc(NCCc3ccc(O)cc3)nc(N3CCNCC3)n2)cc1` needs its XC50 filled in; supply it. 785

Entry CCCC(C)Nc1nc(C)cc(N[C@@H](Cc2ccccc2)C(=O)NCc2ccc(C)cc2)n1 (some centres undefined) needs its XC50 filled in; supply it. 1120

Entry `O=C(Nc1cccc(C2=NCCCN2)c1)Nc1cccc(C2=NCCCN2)c1` needs its XC50 filled in; supply it. 561

Entry `Cc1cnc(C(=O)Nc2ccc(-c3cccc(-c4nc5ccccc5[nH]4)c3)cc2)cn1` needs its XC50 filled in; supply it. 833

Entry `CCOc1cc(C(=O)NCCN(C(C)C)C(C)C)ccc1-c1nc2cc(Cl)ccc2[nH]1` needs its XC50 filled in; supply it. 778

Entry `Nc1cc(-c2ccc(Br)cc2O)nc2ccccc12` needs its XC50 filled in; supply it. 619

Entry COc1ccccc1-c1csc(C(=O)NC2CCCCN(Cc3ccc(C(C)(C)C)cc3)C2)c1 (centres undefined) needs its XC50 filled in; supply it. 1530

* * *

- Test system: Plasmodium falciparum
- assay text: GSK_TCMDC: Inhibition of Plasmodium falciparum 3D7 in whole erythrocytes, using parasite LDH activity as an index of growth.
- Format: functional, organism-based
- applied conditions: Plasmodium falciparum, 3D7
Class membership depends on XC50 alone; the intervals are group 1 (below 700 nM), group 2 (700 nM to below 900 nM), group 3 (900 nM or more)

For `O=C(Nc1ccc(OC2CCN(Cc3ccc(F)cc3)CC2)c(Cl)c1)c1ccoc1` , which XC50 bin applies? group 3

For `CN1CC[C@H](N(Cc2ccccc2F)c2ccc(C#N)c(Cl)c2)C1` , which XC50 bin applies? group 3

For `O=C(/C=C/c1ccc([N+](=O)[O-])cc1)N1CCC(CCN2CCC(c3c[nH]c4ccccc34)CC2)CC1` , which XC50 bin applies? group 2

For `CN(C)CCOc1cc(NC(=O)Nc2ccc(Cl)cc2C(F)(F)F)ccc1I` , which XC50 bin applies? group 3

For `O=C(Nc1cccc(CN2CCCN(Cc3cccnc3)CC2)c1)c1ccc(Cl)c(Cl)c1` , which XC50 bin applies? group 3

For CCN(CC(C)O)C(=O)c1ccc(-c2cccc(-c3nc4cccc(C)c4[nH]3)c2)cc1 (stereo not given) , which XC50 bin applies? group 1

For `O=C(Nc1ccc(Cl)cc1C(=O)Nc1cccc(F)c1)c1ccc([N+](=O)[O-])cc1` , which XC50 bin applies? group 1

For Cc1cccc2nc(-c3ccc(-c4ccc(CNCC5CCCO5)cc4)s3)[nH]c12 (stereo not given) , which XC50 bin applies? group 2

For `CC(=O)Nc1cccc(/C=C/C(=O)N2CCC(N3CCCCC3)CC2)c1` , which XC50 bin applies? group 3

* * *

Exercise: for every item that follows, state its recorded XC50.
- Tested on: Plasmodium falciparum
- assay text: GSK_TCMDC: Inhibition of Plasmodium falciparum 3D7 in whole erythrocytes, using parasite LDH activity as an index of growth.
- Assay type: functional, organism-based
- applied conditions: Plasmodium falciparum, 3D7

Under Plasmodium falciparum: report XC50 of `N=c1n(CCN2CCCCC2)c2ccccc2n1CC(=O)c1cccc([N+](=O)[O-])c1` . 879 nM

Under Plasmodium falciparum: report XC50 of `Cc1ccc(-c2ccn(Cc3cccc(OCc4ccccc4)c3)n2)cn1.Cc1ccc(-c2ccnn2Cc2cccc(OCc3ccccc3)c2)cn1` . 1180 nM

Under Plasmodium falciparum: report XC50 of Cc1cc(C(=O)Nc2ccc3c(c2)CCN3C2CCN(Cc3cc(F)cc(F)c3F)C2)no1 (centres undefined) . 282 nM

Under Plasmodium falciparum: report XC50 of `Oc1cc(Nc2ccnc3cc(-c4cccc(CN5CCOCC5)c4)ccc23)c(F)cc1Cl` . 207 nM

Under Plasmodium falciparum: report XC50 of `OCCN1CCN(Cc2ccc(-c3ccc(-c4nc5cc(C(F)(F)F)ccc5[nH]4)s3)cc2)CC1` . 379 nM

Under Plasmodium falciparum: report XC50 of `COc1ccc2ncc(F)c(CCN3CCC(NCc4cc5c(cn4)OCCS5)CC3)c2c1` . 776 nM

Under Plasmodium falciparum: report XC50 of `CNCCNCc1cccc(-c2cccc(-c3nc4cc(C(F)(F)F)ccc4[nH]3)c2)c1` . 203 nM

Under Plasmodium falciparum: report XC50 of `O=C(Nc1ccc2[nH]c(-c3ccccc3)nc2c1)c1cc(-c2ccc3c(c2)OCCO3)n[nH]1` . 769 nM

Under Plasmodium falciparum: report XC50 of CC(C)N1CCN(C(CN2CCN(CCCOc3cccc(F)c3)CC2)c2ccc(F)cc2)CC1 (centres undefined) . 912 nM

Under Plasmodium falciparum: report XC50 of `CC(C)c1ccc2oc(-c3ccc(NC(=O)c4ccc([N+](=O)[O-])o4)cc3)nc2c1` . 340 nM

Under Plasmodium falciparum: report XC50 of `O=S(=O)(NCCN1CCCC1)c1ccc(-c2ccc(CNCc3ccsc3)cc2)cc1F` . 810 nM

Under Plasmodium falciparum: report XC50 of `C=CCN1CCC(N(Cc2cccc(Oc3ccccc3)c2)C(=O)C(c2ccccc2)c2ccccc2)CC1` . 1140 nM

Under Plasmodium falciparum: report XC50 of `COC(=O)c1cccc(CNCc2cccc(-c3cccc(-c4nc5cc(F)ccc5[nH]4)c3)c2)c1` . 129 nM

Under Plasmodium falciparum: report XC50 of `CCNc1cc(C(=O)N[C@@H](Cc2ccccc2)[C@H](O)CNCC(C)C)cc(N2CCCC2=O)c1` . 485 nM

Under Plasmodium falciparum: report XC50 of `N#Cc1cc(C(=O)c2cc(Cl)ccc2O)cn(-c2cc(Cl)cc(Cl)c2)c1=O` . 849 nM

Under Plasmodium falciparum: report XC50 of `CCOc1ccc(C2CCN(CCCCNC(=O)c3ccc(NC(=O)c4ccc(Cl)cc4)cc3)CC2)c(CC)c1` . 786 nM

Under Plasmodium falciparum: report XC50 of CCc1c(C(=O)NC2CCC(N3CCC(c4ccccc4OC)CC3)CC2)[nH]c2ccc(OC)cc12 (centres undefined) . 1110 nM

Under Plasmodium falciparum: report XC50 of `COCn1ccc2c3c(N)nc(N)nc3ccc21` . 990 nM

Under Plasmodium falciparum: report XC50 of `COc1cc2ncnc(Nc3ccc(OCc4ccccc4)c(C(F)(F)F)c3)c2cc1OC` . 253 nM
